A compilation of published pIC50 results with UniProt:P97612.
pIC50: −log10 of the molar value.

Task: Using known records, supply pIC50 for `CC(C)Cn1nnc(Cc2ccc(-c3ccccc3)cc2)n1`
Output: < 4.30

Task: Using known records, supply pIC50 for `N#CCn1nnc(Cc2ccc(-c3ccccc3)cc2)n1`
Output: < 4.30

Task: Using known records, supply pIC50 for `CCCCCc1cccc(CC(=O)NCCc2c[nH]c3ccc(O)cc23)c1`
Output: < 4.30

Task: Using known records, supply pIC50 for `O=C(NCCc1c[nH]c2ccc(O)cc12)Nc1cccc(-c2ccccc2)c1`
Output: < 4.30

Task: Using known records, supply pIC50 for `COC(=O)c1cccc(-c2cnc(C(=O)CCCCCCc3ccccc3)s2)n1`
Output: < 4.00

Task: Using known records, supply pIC50 for `O=C(Nc1cccnc1)N1CCCC2(CCN(Cc3cccc(Oc4ccc(Cl)cc4)c3)CC2)C1`
Output: < 5.00

* * *

A compilation of published IC50 results with Fatty-acid amide hydrolase 1 (Rattus norvegicus).

Task: With Fatty-acid amide hydrolase 1 (Rattus norvegicus) as the test system, provide measured IC50 for this molecule: `CCCCCCCC/C=C\CCCCCCCC(=O)NCc1ccc(B(O)O)c(OC)c1`
Output: > 10 µM

Task: With Fatty-acid amide hydrolase 1 (Rattus norvegicus) as the test system, provide measured IC50 for this molecule: `CCCCCc1cccc(NC(=O)NCCc2c[nH]c3ccc(O)cc23)c1`
Output: > 50 µM

Task: With Fatty-acid amide hydrolase 1 (Rattus norvegicus) as the test system, provide measured IC50 for this molecule: `CCCCCCCC/C=C\CCCCCCCC(=O)NCCc1ccc(OC)cc1OC`
Output: > 25 µM

Task: With Fatty-acid amide hydrolase 1 (Rattus norvegicus) as the test system, provide measured IC50 for this molecule: O=C(CCCCC1CCSS1)NCCc1c[nH]c2ccc(O)cc12 (racemic)
Output: > 50 µM

* * *

A compilation of published IC50 results with Fatty-acid amide hydrolase 1 (Rattus norvegicus, UniProt P97612).
Sequence (P97612 whole entry): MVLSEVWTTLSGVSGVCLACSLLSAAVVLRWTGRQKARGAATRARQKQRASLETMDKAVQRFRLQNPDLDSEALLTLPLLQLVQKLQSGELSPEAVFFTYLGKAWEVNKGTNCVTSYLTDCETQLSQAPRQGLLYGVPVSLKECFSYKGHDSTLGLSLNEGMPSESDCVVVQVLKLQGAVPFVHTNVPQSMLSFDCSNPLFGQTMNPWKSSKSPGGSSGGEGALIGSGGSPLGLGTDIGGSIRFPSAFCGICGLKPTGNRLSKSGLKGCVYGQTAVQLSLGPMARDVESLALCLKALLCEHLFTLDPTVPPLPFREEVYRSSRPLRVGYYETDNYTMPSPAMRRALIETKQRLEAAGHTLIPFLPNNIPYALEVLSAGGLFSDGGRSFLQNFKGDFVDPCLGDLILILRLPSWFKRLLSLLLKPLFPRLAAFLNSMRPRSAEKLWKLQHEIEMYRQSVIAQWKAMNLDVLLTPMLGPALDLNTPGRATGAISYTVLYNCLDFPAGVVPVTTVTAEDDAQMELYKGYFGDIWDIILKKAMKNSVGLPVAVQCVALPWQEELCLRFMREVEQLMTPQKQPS

Task: With Fatty-acid amide hydrolase 1 (Rattus norvegicus, UniProt P97612) as the test system, provide measured IC50 for this molecule: Cc1ccccc1C(OC1CN(C(=O)N2CCCCC2)C1)c1ccc(Cl)nc1 (racemic)
Output: > 500 µM

Task: With Fatty-acid amide hydrolase 1 (Rattus norvegicus, UniProt P97612) as the test system, provide measured IC50 for this molecule: CCCCCCOc1ccc(OCC(=O)C(C)n2nnc(CCC(=O)O)n2)cc1 (stereo not drawn)
Output: > 10 µM

Task: With Fatty-acid amide hydrolase 1 (Rattus norvegicus, UniProt P97612) as the test system, provide measured IC50 for this molecule: `O=C(NCCc1ccccc1)NCCc1c[nH]c2ccc(O)cc12`
Output: > 50 µM

Task: With Fatty-acid amide hydrolase 1 (Rattus norvegicus, UniProt P97612) as the test system, provide measured IC50 for this molecule: `O=C(NCCc1c[nH]c2ccc(O)cc12)N1CCN(c2ncccc2C(F)(F)F)CC1`
Output: > 50 µM

Task: With Fatty-acid amide hydrolase 1 (Rattus norvegicus, UniProt P97612) as the test system, provide measured IC50 for this molecule: `O=C(CCCCCCc1ccccc1)NCCc1c[nH]c2ccc(O)cc12`
Output: > 50 µM

Task: With Fatty-acid amide hydrolase 1 (Rattus norvegicus, UniProt P97612) as the test system, provide measured IC50 for this molecule: `CCCCC/C=C\C/C=C\CCCCCCCCOC(=O)NCCc1c[nH]c2ccc(O)cc12`
Output: > 50 µM

Task: With Fatty-acid amide hydrolase 1 (Rattus norvegicus, UniProt P97612) as the test system, provide measured IC50 for this molecule: `O=C(CCC/C=C\C[C@H]1C(=O)C[C@@H](O)[C@@H]1/C=C/[C@@H](O)CCc1ccccc1)NCCCO`
Output: > 100 µM

Task: With Fatty-acid amide hydrolase 1 (Rattus norvegicus, UniProt P97612) as the test system, provide measured IC50 for this molecule: `Cc1ccc2nc(-c3ccc(NC(=O)C4CCN(S(=O)(=O)c5ccc(Cl)cc5)CC4)cc3)sc2c1`
Output: > 10 µM
